assay info: Plasma stability of payloads (t½)
Where a SMILES comes first, the peptide text is derived from it. [ ]: non-standard residue; d: D form. The star is where a group is joined. Bip(2'-Et,4'-O(CH2)4NH2) = CCc1cc(OCCCCN)ccc1-c1ccc(C[C@H](N)C(=O)O)cc1; Malonyl(2,2-Me2,histaminyl) = CC(C)(C(=O)NCCc1cnc[nH]1)C(=O)*; Nva(5-(3,5-Me2Ph)) = Cc1cc(C)cc(CCC[C@H](N)C(=O)O)c1; Ala(1H-tetrazol-5-yl) = N[C@@H](Cc1nnn[nH]1)C(=O)O; αMePhe(2-F) = C[C@](N)(Cc1ccccc1F)C(=O)O
test readout: Plasma stability t½

molecule	measured result
CCc1cc(OCCCCN)ccc1-c1ccc(C[C@H](NC(=O)[C@H](CC(=O)O)NC(=O)[C@H](CO)NC(=O)[C@@H](NC(=O)[C@](C)(Cc2ccccc2F)NC(=O)[C@@H](NC(=O)CNC(=O)[C@H](Cc2nn[nH]n2)NC(=O)C(C)(C)C(=O)NCCc2cnc[nH]2)[C@@H](C)O)[C@@H](C)O)C(=O)N[C@@H](CCCc2cc(C)cc(C)c2)C(N)=O)cc1 [P9] ({Malonyl(2,2-Me2,histaminyl)}-[Ala(1H-tetrazol-5-yl)]GT[αMePhe(2-F)]TSD[Bip(2'-Et,4'-O(CH2)4NH2)][Nva(5-(3,5-Me2Ph))]-NH2)	>57.8 h
